Sequence of the target: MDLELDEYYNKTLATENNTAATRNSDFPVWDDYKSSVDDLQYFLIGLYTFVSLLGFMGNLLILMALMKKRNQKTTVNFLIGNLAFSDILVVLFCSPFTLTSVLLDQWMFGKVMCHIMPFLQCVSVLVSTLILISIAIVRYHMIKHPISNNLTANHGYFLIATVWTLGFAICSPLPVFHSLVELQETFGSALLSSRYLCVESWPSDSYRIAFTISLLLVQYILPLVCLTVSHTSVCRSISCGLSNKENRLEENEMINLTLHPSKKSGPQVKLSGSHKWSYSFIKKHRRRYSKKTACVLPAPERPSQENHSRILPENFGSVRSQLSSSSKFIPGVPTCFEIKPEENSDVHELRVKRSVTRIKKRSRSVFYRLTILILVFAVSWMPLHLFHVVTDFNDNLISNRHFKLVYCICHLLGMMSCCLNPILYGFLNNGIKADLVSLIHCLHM
pIC50: −log10 of the molar value.
experimental-endpoint: pIC50

# compound, value-measured
records = [
    ("O=C(NNC(=O)C1CCC(CNS(=O)(=O)c2ccc3ccccc3c2)CC1)c1ccccc1 (stereo not shown)", 7.84),
]
